- System: PPARg homodimer (NR concentration 180 nM)
- Measurement Protocol: PBM binding z-score (relative to random genomic background probes); higher = stronger binding; sequences stand for … in GC…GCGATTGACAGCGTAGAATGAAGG
Measured Attribute: PBM binding z-score
When you answer, write just the number.

For orientation, consider the following solved cases.
| Seq Text | Experimental Value |
| --- | --- |
| CGTCCAAGCTCAGCAGGTCAGTGAAAGCGACGTG | -0.131 |
| ATATGTAGGTTATGGTCATTCAGAAAGTAGGGAA | 1.64 |
| CCGAGTAGGTTACGAGGGGGAATTCAGTGCGAAT | 0.811 |
| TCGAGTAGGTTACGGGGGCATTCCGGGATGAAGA | 1.57 |
| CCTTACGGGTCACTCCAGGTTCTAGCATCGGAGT | 1.37 |
| CGAACTAGGTCACCAGGACAGTAAAGAGGTTGGA | 2.63 |
| GATACAGGGTCAATGCCAGAGTACGCGTATTGAT | 1.86 |
| TTACCAAGGTGAAAGGTCGTTGAAGCACGCCTTG | 1.84 |

Data point: `CCTTACGGGTCACTTACAGGTTATAGCATTTGGA` ; PBM binding z-score = 2.43

PBM binding z-score recorded for this sequence, `CGAACTAGGTCACCAGGACAGCGAAGAGGTTGGA` , is 2.15

PBM binding z-score recorded for this sequence, `ATATGTAGCTTAAGGGTCATTCAGGTTGGTTCGC` , is 2.61

====

- System: PPARg DBDmut:RXRa IVT, anti-PPARg (DBD mutation: PPARg1 K132A/R137A, NR concentration 270 nM, RXRa partner concentration 90 nM)
- Measurement Protocol: PBM binding z-score (relative to random genomic background probes); higher = stronger binding; sequences stand for … in GC…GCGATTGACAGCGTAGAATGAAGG
Binary call on PBM binding z-score: label 1 from 0.5 upward, label 0 beneath that.

| Seq Text | Class Assignment |
| --- | --- |
| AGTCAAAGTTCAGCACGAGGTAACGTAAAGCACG | label 1 |
| CCTAGTTGGTCAAGGTCACACATGCTATAGGTAC | label 1 |
| CAAACTAGGTCACAGAGGTCAACGTCCGTGCGTA | label 1 |
| ATACGTAGGTTATCGGGTCATTCAGTTTGCGCAT | label 1 |

Evaluate `TTACCAAGGTGAACTGAGGTCGTTGATCCAACTC` : PBM binding z-score at minimum 0.5?
label 1

Hi, just wondering whether `TTACCAAGGTCAGCTGAGGTCGTTGATCCAACTC` shows PBM binding z-score of 0.5 or higher.
label 0

====

- Tested on: VDR:RXRa (NR concentration 270 nM, RXRa partner concentration 90 nM)
- Measurement Protocol: PBM binding z-score (relative to random genomic background probes); higher = stronger binding; sequences stand for … in GC…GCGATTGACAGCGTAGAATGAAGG
Measured Attribute: PBM binding z-score
API doc: respond with a numeric literal and nothing else, no unit.

| Seq Text | Experimental Value |
| --- | --- |
| CAAACTAGGTCACGAAAGGTCAAAGTTGAATGAC | 6.81 |
| TAGCCAAGGTCATTCAGGGGCCAGTATAGAAAGC | 5.28 |
| CTCTGTAGGTTAAGGGGGTCATTCAGTTTGAAAG | 7.66 |

Field PBM binding z-score (entry `CAAACTAGGTCAAAGGTCAAAGTAGAGCCAACCA` ) reads 6.71

Sample `TAGCCTAGGTCATTGTGCCAGTATAGTACGCATC` ; PBM binding z-score observed: 2.33

Please fill in: PBM binding z-score reported for `ATATGTAGGTTAGCTGGGGTCATTCCGACTAGGC` = 6.1

====

- Tested on: THRa:RXRa (NR concentration 90 nM, RXRa partner concentration 90 nM)
- Measurement Protocol: PBM binding z-score (relative to random genomic background probes); higher = stronger binding; sequences stand for … in GC…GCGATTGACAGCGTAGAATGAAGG
Measured Attribute: PBM binding z-score

| Seq Text | Experimental Value |
| --- | --- |
| CGTCTAAGTTCAAGGTAACGTAACAGAAAGCAGC | 3.09 |
| CCGAGTAGGTTACGAGGGGCCATTCAGTGCGAAT | 3.34 |
| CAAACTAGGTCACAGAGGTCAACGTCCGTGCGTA | 4.9 |
| ATATGTGGGTTAGGGTCATTCAGAAAGTAGGGAA | 4.42 |
| CCTTACGGGTCAAGGTTGTAGCACGGGTGGTACG | 2.38 |

For this sequence ( `CTATGTAGGTTATGGGGGTCATTCAGTTTGAAAG` ), measured PBM binding z-score is 3.9

Entry under test: `CGAACTAAGTCATCCAGGACAGTGAATACATTGA` . Its PBM binding z-score was 1.55

`CCTTACGGGTCACTGACAGGTCATAGCATTTGGA` has a reported PBM binding z-score of 3.98

====

Catalogue of PBM binding z-score readings, one per entry.
- Tested on: PPARg:RXRa (NR concentration 180 nM, RXRa partner concentration 90 nM)
- Measurement Protocol: PBM binding z-score (relative to random genomic background probes); higher = stronger binding; sequences stand for … in GC…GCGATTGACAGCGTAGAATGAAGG
Give the figure only, with no unit attached.

Consider the worked cases shown below.
| Seq Text | Measured Attribute | Experimental Value |
| --- | --- | --- |
| CGAACTAGGTCAAAGGACAGTCAAAGGCGACGTA | PBM binding z-score | 10.2 |
| CGAACTAGGTCACCAGGACAGTGAAGAGGTTGGA | PBM binding z-score | 8.82 |
| CTATGTAGGTTAAGGGGGTCATTCACTTTGAAAG | PBM binding z-score | 8.46 |
| CCGAGTAGGTTACGAGGGGGCACTCAGTGCGAAT | PBM binding z-score | 2.36 |

Entry `CTGAGTAGGTTACGAGGGGGCATTCAGTGCGAAT` , PBM binding z-score reported as 4.46

For `CTATGTCGGTTAAGGGGGTCATTCAGTTTGAAAG` the sequence record lists PBM binding z-score as 5.4

PBM binding z-score recorded for this sequence, `TAGCCTCGGTCATTCAGGGGCCAGTATAGAAAGC` , is -0.061

`CCTACTGGGCCAAGGTCTTTGATCAGTCAAAGCA` has a reported PBM binding z-score of 0.806

====

- System: PPARg DBDmut IVT, anti-PPARg (DBD mutation: PPARg1 K132A/R137A, NR concentration 270 nM)
- Measurement Protocol: PBM binding z-score (relative to random genomic background probes); higher = stronger binding; sequences stand for … in GC…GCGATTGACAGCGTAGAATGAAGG
The sequences listed here are annotated with their PBM binding z-score.
Write the number on its own, no unit after it.

| Seq Text | Tested Target | Experimental Value |
| --- | --- | --- |
| CTCGAAAGGTCGGTTGAGGTGAGTAAACGGATAA | PPARg DBDmut IVT, anti-PPARg (DBD mutation: PPARg1 K132A/R137A, NR concentration 270 nM) | -0.255 |

Entry `CGTCCAAGGTCACCAGGTCAGTGAAAGCGACGTG` , tested on PPARg DBDmut IVT, anti-PPARg (DBD mutation: PPARg1 K132A/R137A, NR concentration 270 nM), has a reported PBM binding z-score of -0.2

The reported PPARg DBDmut IVT, anti-PPARg (DBD mutation: PPARg1 K132A/R137A, NR concentration 270 nM) PBM binding z-score of `AGCGAAAGGTCGAAGGTGAGTATACCCACCCGAA` is -0.438

Lab entry: PPARg DBDmut IVT, anti-PPARg (DBD mutation: PPARg1 K132A/R137A, NR concentration 270 nM) assay, sequence `CGTCAAAGTTCAACTAATGTAACGTAAAGCACGC` , PBM binding z-score = 2.3

Form field PBM binding z-score for item `CCTAGATGGTCAGGAGGTCACACACCGGATATGA` on PPARg DBDmut IVT, anti-PPARg (DBD mutation: PPARg1 K132A/R137A, NR concentration 270 nM): 0.0962

Reported PBM binding z-score (PPARg DBDmut IVT, anti-PPARg (DBD mutation: PPARg1 K132A/R137A, NR concentration 270 nM)) for entry `TCTAGCTGGTCACGGAGGTCACACACGACGGGTA` is 0.217

Tested on PPARg DBDmut IVT, anti-PPARg (DBD mutation: PPARg1 K132A/R137A, NR concentration 270 nM), the item `CCTGGCAGGCCAGGGTCACTCAAGCATTTCGCTT` showed PBM binding z-score equal to -1.58

Recorded PBM binding z-score for `CGAACTAGGACATCCAGGACAGTGAATACATTGA` on PPARg DBDmut IVT, anti-PPARg (DBD mutation: PPARg1 K132A/R137A, NR concentration 270 nM) was 0.652

The value of PBM binding z-score recorded for `AGTCAAAGTTCATCTGGGTAACGTAAGATATGCT` when tested on PPARg DBDmut IVT, anti-PPARg (DBD mutation: PPARg1 K132A/R137A, NR concentration 270 nM) reads 0.701
